# Measured Target: T1, cMet-Fc fusion protein (extracellular domain of the cMet receptor expressed as an Fc-fusion protein) (human, UniProt P08581 25-932)
# T1 construct: extracellular domain; also called soluble cMet-Fc-fusion protein; soluble cMet receptor; not shown: Fc part
# T1 sequence (P08581 25-932): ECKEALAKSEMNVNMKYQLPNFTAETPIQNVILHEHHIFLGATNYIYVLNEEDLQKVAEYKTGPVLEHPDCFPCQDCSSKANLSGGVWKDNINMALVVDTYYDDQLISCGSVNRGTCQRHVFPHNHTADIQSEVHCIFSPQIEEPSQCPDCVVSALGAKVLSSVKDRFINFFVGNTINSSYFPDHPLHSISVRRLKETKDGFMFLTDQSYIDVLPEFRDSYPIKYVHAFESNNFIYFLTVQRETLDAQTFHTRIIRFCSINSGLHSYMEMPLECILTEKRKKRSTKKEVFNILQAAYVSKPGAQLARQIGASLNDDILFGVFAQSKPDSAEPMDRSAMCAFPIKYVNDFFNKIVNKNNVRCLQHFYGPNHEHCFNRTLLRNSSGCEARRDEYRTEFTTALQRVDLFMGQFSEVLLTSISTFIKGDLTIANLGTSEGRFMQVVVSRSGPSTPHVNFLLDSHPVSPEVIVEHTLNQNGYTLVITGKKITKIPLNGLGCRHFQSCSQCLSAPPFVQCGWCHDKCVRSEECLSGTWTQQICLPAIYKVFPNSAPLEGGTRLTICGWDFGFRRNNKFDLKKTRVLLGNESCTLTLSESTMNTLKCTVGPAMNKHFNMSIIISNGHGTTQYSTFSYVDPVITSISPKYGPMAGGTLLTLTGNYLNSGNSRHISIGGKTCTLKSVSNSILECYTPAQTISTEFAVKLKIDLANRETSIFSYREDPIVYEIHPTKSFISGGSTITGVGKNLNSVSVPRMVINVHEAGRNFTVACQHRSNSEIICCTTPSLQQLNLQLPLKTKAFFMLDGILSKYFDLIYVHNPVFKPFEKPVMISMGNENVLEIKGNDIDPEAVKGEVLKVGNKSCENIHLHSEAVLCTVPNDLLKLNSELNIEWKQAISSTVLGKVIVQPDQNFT
# Method: phage ELISA on cMet-Fc, competitor HGF 100 ng/mL
# Procedure: These assays were conducted using the peptide-displaying phage discovered from the initial selection and screening campaigns using the first generation peptide libraries. Briefly, 96-well plates were coated overnight at 4 C with 0.5 μg/mL of cMet-Fc fusion protein or TRAIL-Fc fusion protein (background). […] The plates were incubated for 2 hours at room temperature, washed with PBST and cMet-binding peptide-displaying phage was detected using an HRP-conjugated anti-M13 antibody.
Measured % of binding in the absence of HGF by item
Endpoint: % of binding in the absence of HGF (%)

>>> reading("AQDNTADQMFNGFHVLAMYMV [117-E09 peptide-displaying phage (SEQ ID NO: 481)]")
109
>>> reading("GDHLTCEFRDDGWKEHCWWSDP [552-F06 peptide-displaying phage (SEQ ID NO: 403)]")
82
>>> reading("AQAYEWWADESIFNHGYYWGHQ [94-B08 peptide-displaying phage (SEQ ID NO: 470)]")
111
>>> reading("GDYYQCQFSKDMYSERCWPYDP [316-F08 peptide-displaying phage (SEQ ID NO: 397)]")
72
>>> reading("AGQFKCAGPPSFACWMTGT [333-F09 peptide-displaying phage (SEQ ID NO: 050)]")
52
>>> reading("AGLYLCDLSIMYCFFQGT [489-A04 peptide-displaying phage (SEQ ID NO: 015)]")
30
>>> reading("AGHGTCRGWPTFECIYFGT [332-A05 peptide-displaying phage (SEQ ID NO: 064)]")
40
>>> reading("AGHTICQHKALGCPANGT [465-C07 peptide-displaying phage (SEQ ID NO: 041)]")
102
>>> reading("GSMLGCLFEHQNKYDCYVLAP [443-D04 peptide-displaying phage (SEQ ID NO: 379)]")
69
>>> reading("AGPLFCFEWPSLCHWGGT [448-H02 peptide-displaying phage (SEQ ID NO: 033)]")
113
>>> reading("AGYSVCKGYPSFECAFFGT [336-D07 peptide-displaying phage (SEQ ID NO: 075)]")
44
>>> reading("AGDHYCWEEWWFCWDSGT [482-A12 peptide-displaying phage (SEQ ID NO: 021)]")
98
>>> reading("AQRDYLFYWNDGSYQPWQVFVG [523-A04 peptide-displaying phage (SEQ ID NO: 493)]")
133
>>> reading("AGDWHCQGPPAFMCWMIGT [330-C01 peptide-displaying phage (SEQ ID NO: 065)]")
58
>>> reading("AQQASRFTFTDGDSYWWFEDF [525-A07 peptide-displaying phage (SEQ ID NO: 449)]")
93
>>> reading("AQVGESLDDGWTFFSDKWFDFF [27-D10 peptide-displaying phage (SEQ ID NO: 485)]")
111
>>> reading("AQREVEEPYWYLDFLSSWRMHE [524-E09 peptide-displaying phage (SEQ ID NO: 451)]")
100
